The reader will find reported EC50 values listed item by item below.
target.desc: Glycogen synthase kinase-3 beta (Homo sapiens)
Sequence (P49841 whole entry): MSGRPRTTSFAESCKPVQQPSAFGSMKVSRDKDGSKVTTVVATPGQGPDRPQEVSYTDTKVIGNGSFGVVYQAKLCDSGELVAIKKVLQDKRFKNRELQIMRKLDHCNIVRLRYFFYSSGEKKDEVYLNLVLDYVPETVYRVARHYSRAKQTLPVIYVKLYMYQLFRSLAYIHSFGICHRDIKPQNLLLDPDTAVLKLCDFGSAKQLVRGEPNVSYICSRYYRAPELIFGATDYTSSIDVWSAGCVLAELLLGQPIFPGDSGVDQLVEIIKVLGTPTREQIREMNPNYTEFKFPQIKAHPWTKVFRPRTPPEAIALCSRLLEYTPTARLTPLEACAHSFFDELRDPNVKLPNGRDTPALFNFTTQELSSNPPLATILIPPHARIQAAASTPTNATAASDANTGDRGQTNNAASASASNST
assay.remarks: concentration-response blocking of human GSK3B – biochemical, luminescence, cell-free homogeneous, retest, dose response (AID 434954)

-- ask Give EC50 for this entry on Glycogen synthase kinase-3 beta (Homo sapiens): "O=C1Nc2cc(C(=O)NCCCN3CCOCC3)ccc2S/C1=C/c1ccccc1F"
-- reply 18.2 µM

-- ask State measured EC50 of the compound "Cc1nn(Cc2ccc(Cl)c(Cl)c2)c(C)c1NC(=O)c1noc2c1CCCCC2" with Glycogen synthase kinase-3 beta (Homo sapiens).
-- reply > 300 µM

-- ask Provide measured EC50 on Glycogen synthase kinase-3 beta (Homo sapiens) for "COCCn1c(SCC(=O)Nc2ccc(S(=O)(=O)N(C)C)cc2)nc2ccccc21" please.
-- reply > 300 µM

New cases:
-- ask Specify EC50 for COc1ccc(C2CC(=O)N3CN(c4ccc(C)c(Cl)c4)CSC3=C2C#N)cc1 (stereo not drawn) , system Glycogen synthase kinase-3 beta (Homo sapiens).
-- reply > 300 µM

-- ask Name the value of EC50 reported for "CCOC(=O)c1cnc2ccc(OC)cc2c1Nc1ccc(N2CCN(C)CC2)cc1" when tested on Glycogen synthase kinase-3 beta (Homo sapiens).
-- reply 5.26 µM

-- ask Report EC50 on Glycogen synthase kinase-3 beta (Homo sapiens) for this entry: "CCCCC(=O)Nc1cc(C)c(NC(=O)c2cccs2)cn1"
-- reply > 300 µM

-- ask State, for Glycogen synthase kinase-3 beta (Homo sapiens), measured EC50 of the compound listed here: CC1=NC2=C(C(=O)CC(C)(C)C2)C(c2ccc(O)cc2)C1C#N (stereo not drawn)
-- reply > 300 µM

-- ask Give the observed EC50 of COc1ccccc1N1CCN(CCCNC(=O)C2CCCN(c3ncnc4c3nc3n4CCCCC3)C2)CC1 (stereo not drawn) for Glycogen synthase kinase-3 beta (Homo sapiens).
-- reply 156 µM

* * *

target.desc: Glycogen synthase kinase-3 beta (Homo sapiens)
assay.remarks: concentration-response blocking of human GSK3B – biochemical, luminescence, cell-free homogeneous, retest, dose response (AID 434954)
measured.attribute: EC50

Example entries begin here.
-- ask Provide one value: measured EC50 of "CCOC(=O)c1ccc(NC(=O)CSc2nnc(C3CC3)n2CC)cc1"
-- reply > 300 µM

-- ask Fill in EC50 for record CC(Cc1c[nH]c2ccccc12)NC(=O)OCCCl (stereo unspecified)
-- reply > 300 µM

-- ask Note EC50 for the molecule shown: CCOC(=O)C1C(=CN2CCSCC2)NC(=O)NC1c1cc(C)ccc1C (stereo unspecified)
-- reply > 300 µM

-- ask Give the reported EC50 for this molecule. "O=C(c1cccs1)c1coc2ccc(O)cc12"
-- reply 4.73 µM

-- ask Supply measured EC50 of "COc1ccccc1-c1c(C(F)(F)F)oc2c(CN(C)C)c(O)ccc2c1=O" in your reply.
-- reply > 300 µM

***
-- ask Specify EC50 for "CC(C)c1ccc(C(=O)NCCCN2CCN(CCCNC(=O)c3ccc(C(C)C)cc3)CC2)cc1" and stop.
-- reply > 300 µM

* * *

target.desc: Glycogen synthase kinase-3 beta (Homo sapiens)
assay.remarks: concentration-response blocking of human GSK3B – biochemical, luminescence, cell-free homogeneous, retest, dose response (AID 434954)
Property: EC50; scope: individual molecules
Answer with a number only, understood to be in µM.

-- ask Quick one: give measured EC50 for Nc1ccc(O)c2c(=O)cc(-c3ccccc3Cl)oc12 [MLS000518334]
-- reply 21.5

-- ask Given the molecule O=C(Nc1ccc(Cl)c(Cl)c1)Nc1ccccn1 [SMR000515062] , write its reported EC50.
-- reply 47.2

-- ask Identify EC50 associated with the molecule "Cn1nc(-c2ccccn2)nc2c(=O)n(C)c(=O)nc1-2"
-- reply 46.2

-- ask State, in one line, measured EC50 of "c1csc(C2=Nn3c(nnc3-c3ccncc3)SC2)c1"
-- reply 0.735

-- ask Give the reported value of EC50 for this record: C=CCNC(=S)NN=Cc1cn(-c2ccccc2)nc1-c1ccc(OC)cc1 [SMR000212115]
-- reply 42.5

-- ask Specify measured EC50 for Cc1cc2c(s1)NC(=O)CN=C2c1cccs1 [MLS000072965] .
-- reply 33.1

-- ask Please report EC50 for the following molecule: "O=c1cc(-c2ccccc2)c2c(O)cc(O)cc2o1"
-- reply 7.82

-- ask Identify the reported EC50 for the following entry. CC(=O)Nc1cccc2c1C(=O)NC2=O [N-(1,3-dioxoisoindol-4-yl)acetamide]
-- reply 31.7

Continue with the molecule presented below.
-- ask Annotate the molecule "CN(C)CCCNc1nc(N)c([N+](=O)[O-])c(NCCO)n1" with its measured EC50.
-- reply 60.3
